- tested.system: human NHE3 (Homo sapiens)
- Sequence (P48764 26-834): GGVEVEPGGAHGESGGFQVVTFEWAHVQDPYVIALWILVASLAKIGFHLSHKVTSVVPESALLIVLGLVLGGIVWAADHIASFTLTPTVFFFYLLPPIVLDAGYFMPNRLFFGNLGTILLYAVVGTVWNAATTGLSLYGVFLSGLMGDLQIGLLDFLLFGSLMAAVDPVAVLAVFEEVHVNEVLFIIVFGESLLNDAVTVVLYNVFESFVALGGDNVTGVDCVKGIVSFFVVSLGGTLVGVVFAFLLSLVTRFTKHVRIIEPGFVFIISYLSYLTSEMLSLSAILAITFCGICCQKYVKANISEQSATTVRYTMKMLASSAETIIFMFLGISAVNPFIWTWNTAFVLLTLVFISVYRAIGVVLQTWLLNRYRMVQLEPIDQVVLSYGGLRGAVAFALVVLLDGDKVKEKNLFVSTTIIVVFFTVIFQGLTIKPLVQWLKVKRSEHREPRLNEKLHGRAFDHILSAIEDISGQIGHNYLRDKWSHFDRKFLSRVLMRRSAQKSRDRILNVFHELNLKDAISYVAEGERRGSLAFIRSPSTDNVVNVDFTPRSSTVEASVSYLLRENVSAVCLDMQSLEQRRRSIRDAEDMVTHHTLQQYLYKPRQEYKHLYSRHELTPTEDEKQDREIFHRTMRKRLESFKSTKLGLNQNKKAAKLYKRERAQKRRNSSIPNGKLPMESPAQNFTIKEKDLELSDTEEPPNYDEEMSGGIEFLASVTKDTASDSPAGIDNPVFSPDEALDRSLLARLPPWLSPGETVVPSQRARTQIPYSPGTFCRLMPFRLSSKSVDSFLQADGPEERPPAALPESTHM
- experimental.details: Cell-based assay of NHE-3 activity (human NHE3 inhibition assay)
- Set-up: expressed in transfected cells; host or cells: Opossum kidney (OK) cells (ATCC), electroporated
- particulars: OK cells with human NHE-3 gene, BCECF pH recovery, 0-30 μM test compound; read-out: Human NHE3 pIC50 (converted)
readout.name: IC50

The compound identified as N[C@@H]1CCCN([C@H]2Cc3ccccc3[C@@H]2Oc2ccc(S(=O)(=O)NCCOCCOCCNC(=O)NCCCCNC(=O)NCCOCCOCCNS(=O)(=O)c3ccc(O[C@H]4c5ccccc5C[C@@H]4N4CCC[C@@H](N)C4)cc3)cc2)C1 [Example 28] registered its IC50 at 100 to 10000 nM

Record summary for CN(C)[C@H]1Cc2c(Cl)cc(Cl)cc2[C@@H]1Oc1ccc(S(=O)(=O)NCCOCCOCCNC(=O)CCC(C)(N)CCC(=O)NCCOCCOCCNS(=O)(=O)c2ccc(O[C@H]3c4cc(Cl)cc(Cl)c4C[C@@H]3N(C)C)cc2)cc1 [Example 11] : reported IC50 = < 100 nM
